Target: HLA-B*44:03
Assay: IEDB peptide-MHC binding, purified MHC/competitive/radioactivity; filed as Kd, often an IC50 or EC50 that approximates it; bounds were set here for any values at or beyond the usual limits of such assays
Details: source organism: Mammarenavirus machupoense
pKd: −log10 of the molar value.
Overview of reported pKd across a group of sequences:
Value kind: pKd

>>> observed_value("KEPQKPLVL")
"≤ 4.62"
>>> observed_value("QEKAPDVGEL")
"≤ 4.68"
>>> observed_value("GDEALTGFL")
"≤ 4.11"
>>> observed_value("AENVIVGLV")
6.47

###

Target: HLA-B*15:17
Test: IEDB peptide-MHC binding, purified MHC/competitive/fluorescence; filed as Kd, often an IC50 or EC50 that approximates it; bounds were set here for any values at or beyond the usual limits of such assays
Conditions: source organism: Rickettsia akari str. Hartford
Value kind: Kd

>>> observed_value("FTARIIIFS")
"≥ 20 µM"
